- Tested on: 3T3L1 preadipocytes
- test.method.notes: MTT cell viability assay, proliferation of 3T3L1 preadipocytes (with Calcusyn combination index)
- Type: cell-based
- settings: 3T3L1 cells, 48 hours, MTT; read-out: IC50 (3T3L1 cell survival rate)
property.label: IC50 (mM)
Provide only the numeric value, understood in mM.

Request: Please give the measured IC50 for this compound: NC(=O)c1ccc[n+]([C@@H]2O[C@H](COP(=O)([O-])O)[C@@H](O)[C@H]2O)c1 [GX999, Nicotinamide mononucleotide]
Result: 51.7

Ref: patent US12589107B2
